test system: Rattus norvegicus; assay: Antiinflammatory activity in Wistar rat assessed as inhibition of carrageenan-induced paw edema administered orally at equimolar oral dose relative to 10 mg/kg flurbiprofen measured after 4 hrs of carrageenan challenge; assay type: functional
The following compounds are shown together with reported inhibition in vivo values.
Provide the reading as a plain figure in %.

Recorded inhibition in vivo, per entry:
Fc1ccc(Nc2nnc(COc3ccc(-c4ccccc4)cc3)o2)cc1 | 52.3
Sc1nnc(COc2ccc(-c3ccccc3)cc2)n1-c1ccc(Cl)cc1 | 18.2
Brc1ccc(Nc2nnc(COc3ccc(-c4ccccc4)cc3)s2)cc1 | 63.6
COc1ccc2cc(C(C)c3nnc(COc4ccc(-c5ccccc5)cc4)o3)ccc2c1 (stereo unspecified) | 25
Cc1ccccc1-n1c(S)nnc1COc1ccc(-c2ccccc2)cc1 | 59.1

Read the next record carefully.
Prompt: Short answer please: inhibition in vivo, Rattus norvegicus, entry `CCCCNc1nnc(COc2ccc(-c3ccccc3)cc2)o1`
Response: 15.9
